// data source = patent US20200223906A1

# Target Of Assay: RSV F protein of subtype B (18537) on recombinant mKate-RSV virus (Respiratory syncytial virus subtype B …, UniProt P13843 26-574)
# Measurement Description: cell-based or functional assay
Listed next: entries and their corresponding Neut IC50 (µg/ml) subtype B.
Please state the figure in µg/mL; there is no need to write the unit.

Example entries and their recorded answers appear below.
ADI-18955 (antibody, V domains shown, full-length IgG from yeast; also called Antibody Number 306; Ab # 306) VH: EVQLVESGGGVVQSGRSLRLSCAASGFIFSDNGMHWVRQAPGKGLEWVAGIFYDGSNKQYADSVKGRFTISRDNSKNTLYLQMKSLRAEDTAVYYCARAPYDIWSGYCLDYWGQGTLVTVSS VL: DIQVTQSPATLSMSPGERATLSCRASQSVNNNLAWYQQRPGQAPRLLIYGASTRATGIPARFSGSGSETEFTLTISSLQSEDFAVYHCQQYSIWPQTFGQGTKVEIK    3.12
ADI-18891 (antibody, V domains shown, full-length IgG from yeast; also called Antibody Number 246; Ab # 246) VH: QVQLQESGAEVKKPGSSVKVSCKASGGAFSSYAISWVRQAPGQGLEWLGGITHLFGTVSYAPKFQGRVTITADASTGTLYMVLNSLKPEDTAIYYCARDAYEVWTGSYLPPFDYWGQGTLVTVSS VL: EIVLTQSPGTLSLSPGERATLSCRASQTVTSNYLAWYQQKPGQAPRLLIYDALTRATGIPDRFSGSGSGTDFTLTISRLEPEDFALYYCQQYGSSFLTFGGGTKLEIK    0.026
ADI-18930 (antibody, V domains shown, full-length IgG from yeast) VH: QVQLVQSGAEVKKPGSSVKVSCKASGGTFSGYHISWVRQAPGQGLEWMGGIIHLFGTVNYAPKFQGRVTITADASTGTAYMELNSLMSEDTAVYYCARDAYEVWTGSYLPPFDYWGQGTLVTVSS VL: EIVLTQSPGTLSLSPGERVTLSCRASQTVTSSYLAWYQQKPGQAPRLLIYGAFTRATDIPDRFSGSGSGTDFTLTISRLEPEDSAVYYCQQYGSSFLTFGGGTKVDIK    0.051

Shifting focus to the binder that follows.
Value of Neut IC50 (µg/ml) subtype B reported for the binder ADI-18932 (antibody, V domains shown, full-length IgG from yeast) VH: QVQLQESGPGLVRPSQTLSLTCSASGAAINSGDYYWSWIRQAPGRGLEWIGSISNRGVTDYNPSLKSRVIISADTSKNQFSLRLTSVTATDTAVYYCARDLGTLAFDPYYYYGIDVWGQGTTVTVSS VL: DIRMTQSPATLSLSPGERATLSCRASQSVSRHLAWYQQKPGQAPRLLIYDASYRVTGVPDRFSGSGSGTDFTLTISSLESEDFAIYFCQQRSTWPTFGQGTKVEIK is 0.351
